Biological target: human MC3R (human, UniProt P41968 1-323)
Sequence (P41968 whole entry): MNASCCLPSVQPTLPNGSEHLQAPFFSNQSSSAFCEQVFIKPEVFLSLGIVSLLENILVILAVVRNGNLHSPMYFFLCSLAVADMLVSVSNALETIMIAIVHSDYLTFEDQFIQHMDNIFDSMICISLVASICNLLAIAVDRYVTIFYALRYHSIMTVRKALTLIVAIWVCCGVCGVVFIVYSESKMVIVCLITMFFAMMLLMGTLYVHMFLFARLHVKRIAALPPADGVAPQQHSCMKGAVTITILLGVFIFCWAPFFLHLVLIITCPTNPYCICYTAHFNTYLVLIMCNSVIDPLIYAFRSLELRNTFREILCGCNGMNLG
Experiment: cell-based or functional assay
Starred links: 1 amine or outer side, 2 acyl side, 3 side chain; linkers in the order of their positions; H or OH if unused. Positions of bridges follow the written chain, without caps; N, C: chain ends. Non-standard residues stand in square brackets, D forms with d. Primed or numbered codes have the meaning given here. dTyr(4-OMe)″ = O-methyl-D-tyrosine, COc1ccc(C[C@@H](N[*:1])C(=O)[*:2])cc1; Phe(4-Br) = N[C@@H](Cc1ccc(Br)cc1)C(=O)O; Nle = CCCC[C@H](N)C(=O)O
# reported % max activation; entries follow
Kindly answer with a numeric value in %, unit omitted.

Ac-R[Nle]CR[dTyr(4-OMe)″]RWC-NH2 (disulfide 3-8; SMILES CCCC[C@H](NC(=O)[C@H](CCCNC(=N)N)NC(C)=O)C(=O)N[C@H]1CSSC[C@@H](C(N)=O)NC(=O)[C@H](Cc2c[nH]c3ccccc23)NC(=O)[C@H](CCCNC(=N)N)NC(=O)[C@@H](Cc2ccc(OC)cc2)NC(=O)[C@H](CCCNC(=N)N)NC1=O) [CTX-1614] ... 28

So what's the measured % max activation for this one? Ac-RC[dA]R[Phe(4-Br)]RWC-NH2 (disulfide 2-8) [CTX-1212]
0.1
